System: MIWI (PIWIL1) piRISC loaded with Kctd7 piRNA (30 nt);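 also: 1 nM active piRISC with 0.1 nM target library at 33 °C single turnover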
assay_notes: pre-steady-state target cleavage rate (min^-1); higher = faster piRNA-guided slicing of the target
measurement_conditions: guide: Kctd7 piRNA 5'p-UGUUAAUCUCUCAGAGAAGGUGACAGUGAU; auxiliary factor: 500 nM mouse GTSF1
The full ranking holds about 6,600 sequences; the median of “pre-steady-state target cleavage rate” is about 0.07, and the highest 2% start at about 0.72. The list comes from a sample in which the highest values are over-represented; it also holds close analogues and randomly drawn sequences.
parameter_measured: pre-steady-state target cleavage rate

Solved entries (count: 3):
UAGUGACACAGCUUCUCUGAGAGUUUAACA: 0.0412
UAGACUGUCUGGUUCUCUGAGAGAUUAUGA: < 0.0001
UAGACUGUCACCAUCUCUGAGAGAUUAACA: 0.741

Looking up UAGACUGUCACCAUUCUCUGAGAGAUUAACA , I found its pre-steady-state target cleavage rate recorded as 0.792

Looking up UAGACUGUCACCUUCUCUGAGAGAUUUACA , I found its pre-steady-state target cleavage rate recorded as 0.369

====

Test system: MIWI (PIWIL1) piRISC loaded with Kctd7 piRNA (30 nt);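 also: 1 nM active piRISC with 0.1 nM target library at 33 °C single turnover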
assay_notes: pre-steady-state target cleavage rate (min^-1); higher = faster piRNA-guided slicing of the target
measurement_conditions: guide: Kctd7 piRNA 5'p-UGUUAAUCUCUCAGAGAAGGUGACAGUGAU; auxiliary factor: 500 nM mouse GTSF1
The full ranking holds about 6,600 sequences; the median of “pre-steady-state target cleavage rate” is about 0.07, and the highest 2% start at about 0.72. Only a selection was taken, and the highest values are over-represented in it overall.
parameter_measured: pre-steady-state target cleavage rate

UAGACUGUCACCUUCUCUCUCUCUAAUUGA [g13:g27:cont:t1A]: < 0.0001

The reported pre-steady-state target cleavage rate value, MIWI (PIWIL1) piRISC loaded with Kctd7 piRNA (30 nt), for UUCACUGUGACGUUCUCUGAGAGAUUAACA reads 0.59

The reported pre-steady-state target cleavage rate value, MIWI (PIWIL1) piRISC loaded with Kctd7 piRNA (30 nt), for AUCACUGUCACCAUCUCUGAGAGAUAAACA reads 0.31

====

Test system: MIWI (PIWIL1) piRISC loaded with Kctd7 piRNA (30 nt);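 also: 1 nM active piRISC with 0.1 nM target library at 33 °C single turnover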
assay_notes: pre-steady-state target cleavage rate (min^-1); MIWI and MILI are mouse PIWI proteins and EfPiwi is from a freshwater sponge; tags in brackets are library labels; higher = faster piRNA-guided slicing of the target;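 also: 1 nM active piRISC with 0.1 nM target library at 33 °C single turnover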
measurement_conditions: guide: Kctd7 piRNA 5'p-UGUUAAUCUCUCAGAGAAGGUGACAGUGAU; auxiliary factor: 500 nM mouse GTSF1
In all, about 6,600 sequences were measured (“pre-steady-state target cleavage rate”: median about 0.07, highest 2% from about 0.72 on). What follows is part of a selection rich in the highest values, with near analogues and random picks from the rest.
Examples of sequences with documented pre-steady-state target cleavage rate follow.
Provide a numeric answer; units are not to be included.

Solved entries (count: 6):
AGUCACUGUCACCUUCUCUGAGAGAUUAACA: 0.833
UAGUCUGUCACCUUCUCUGAGAGAUAUUCA: 0.211
AUCACUGUACCUUCUCUGAGAGAUUAACA: 0.769
UAGUGAGUCACCUUAUCUGAGAGAUUAACA: 0.363
AUCACUGUAACCUUCUCUGAGAGAUUAACA: 0.651
GUCACUGUCACCUUCUCUGAGAGAUUAACA: 0.763

Continue with the sequence presented below.
Looking up UACCACUGUCACCUUCUCUGAGAGAUUAACA , I found its pre-steady-state target cleavage rate recorded as 0.773
